Each entry below carries its reported Kd.
biological target: T1, His-tagged cynomolgus monkey CD38 (ACRO Biosystems, CD8-05223 [sic]) (cynomolgus monkey, UniProt Q5VAN0 43-301); assay: SPR (second run), His-tagged CD38
T1 construct: bought protein; used for ELISA coating and as SPR analyte; not shown: His tag
Your answer is read as nM, so omit the unit and give the number.

Consider the following illustrative entries.
BINDER: 40769p1.1.G5 (scFv, V domains shown) VH: EVQLLESGGGFVQPGGSLRLSCAASGFNFNNAWMNWVRQAPGKGLEWVGIINGDGTNTYYADSVKGRFTISRDNSKNTLYLQMSSLRAEDTAIYYCARDNKLNDYYYAMDVWGQGTTVTV VL: QSVLTQPSSASGTPGQRVTISCSGGSSNIHANYVYWYQQLPGTAPKLLIYRNSQRPSGVPDRFSGSKSGTSASLAISGLQSEDEADYYCGTWDNILNVWVFGGGTKLTVL
Kd, nM: 28.1

BINDER: 40596p1.A5 (scFv, V domains shown) VH: EVQLLESGGGLVQPGGSLRLSCAASGFDFSNNAMSWVRQAPGKGLEYVAGSGWSGSFIFYADSVKGRFTVSRDNSENTLYLQMNSLRAEDTAVYYCAKNPGFGEMDVWGQGTTVTVSS VL: EIVLTQSPGSLSLSPGERATLRCRASQSIGSNLAWYQQKPGQAPSLLIYGASTRAADIPDRFSGSGSGTEFTLTITSLQSEDFAVYYCQQYNSWPPLTFGGGTKVEIK
Kd, nM: 203

// moving on: another record for Kd
What does the data say about its Kd? Entry: 40596p1.D2 (scFv, V domains shown) VH: EVQLLESGGGLVQPGGSLRLSCAASGFDFSKNAMSWVRQAPGKGLEYVAGSGWSGSFIFYADSVKGRSTVSRDNSENTLYLQMSSLRAEDTAVYYCAKNPGFGEMDVWGQGTTVTVSS VL: ELVLTQSPGSLFLSPGERATLTCRASQTIGSNLAWYQQKFGQAPRLLIYGASTRAADIPDRFSGSGSGTEFTLTISSLQSEDFAVYYCQQYNSWPPLTFGGGTKVEIK 172
